Taken from ChEMBL document CHEMBL4261650.

Assay: Apparent intrinsic clearance in rat liver microsomes
Type: ADME, microsome
Conditions: read-out: CLH(app)
ENDPOINT LABEL: microsomal CLint (µL/min/mg)
// note: answer is a bare numeric in µL/min/mg

**Q:** Endpoint output: microsomal CLint of `N#CN[C@H]1CCc2ccc(-c3ncnc4[nH]ccc34)cc21` . Value?
**A:** 100

====

Assay: Clearance in rat at 1 mg/kg, iv co-administered with CYP450 inhibitor ABT by LC-MS/MS analysis
Type: ADME, organism-based
Conditions: in vivo
ENDPOINT LABEL: clearance (mL/min/kg)
// note: answer is a bare numeric in mL/min/kg

**Q:** Endpoint output: clearance of `N#CN[C@H]1CCc2ccc(-c3ncnc4[nH]ccc34)cc21` . Value?
**A:** 34

====

Test: Apparent intrinsic clearance in human liver microsomes
Assay type: ADME, microsome
Conditions: read-out: CLH(app)
ENDPOINT LABEL: microsomal CLint (µL/min/mg)
// note: answer is a bare numeric in µL/min/mg

**Q:** Endpoint output: microsomal CLint of `N#CN[C@H]1CCc2ccc(-c3ncnc4[nH]ccc34)cc21` . Value?
**A:** 50

====

Assay: GSH reactivity in phosphate buffer assessed as half life at 20 uM after 1 hr in presence of L-glutathione by LC-MS/MS analysis
Format: physicochemical
Conditions: phosphate buffer with L-glutathione
Here the recorded half-life at 20 µM is given for each entry.
// note: answer is a bare numeric in min

Consider the reported half-life at 20 µM for these molecules:
N#CN[C@H]1CCOc2ccc(-c3ncnc4[nH]ccc34)cc21: 41
Cn1nccc1S(=O)(=O)N[C@@H]1C[C@H](NC#N)c2cc(-c3ncnc4[nH]ccc34)ccc21: 22
N#CN[C@H]1CCc2ccc(-c3ncnc4[nH]cc(-c5ccccc5)c34)cc21: 94

**Q:** Endpoint output: half-life at 20 µM of `CS(=O)(=O)N[C@@H]1C[C@H](NC#N)c2cc(-c3ncnc4[nH]ccc34)ccc21` . Value?
**A:** 23

====

Here the recorded clearance is given for each entry.
Assay: Clearance in rat at 1 mg/kg, iv administered as single dose by LC-MS/MS analysis
Assay type: ADME, organism-based
Conditions: in vivo
// note: answer is a bare numeric in mL/min/kg

C=CC(=O)Nc1cccc(-c2ncnc3[nH]cc(CCOC)c23)c1: 455

Read the next record carefully.
**Q:** Endpoint output: clearance of `N#CN[C@H]1CCc2ccc(-c3ncnc4[nH]ccc34)cc21` . Value?
**A:** 36

====

Test: Half life in rat at 1 mg/kg, iv co-administered with CYP450 inhibitor ABT by LC-MS/MS analysis
Type: ADME, organism-based
Conditions: in vivo
ENDPOINT LABEL: half-life (min)
// note: answer is a bare numeric in min

**Q:** Endpoint output: half-life of `N#CN[C@H]1CCc2ccc(-c3ncnc4[nH]ccc34)cc21` . Value?
**A:** 45

====

Assay: Apparent permeability across apical to basolateral side in RRCK cells after […] by HPLC analysis
Format: ADME, cell-based, Canis lupus familiaris, MDCKII-LE
Conditions: dog, MDCK
ENDPOINT LABEL: Papp A→B at […] (×10⁻⁶ cm/s)
// note: answer is a bare numeric in ×10⁻⁶ cm/s

N#CN[C@H]1CCc2ccc(-c3ncnc4[nH]ccc34)cc21: 11

**Q:** Endpoint output: Papp A→B at […] of `COCCc1c[nH]c2ncnc(-c3ccc4c(c3)N(C#N)CC(F)(F)O4)c12` . Value?
**A:** 14

**Q:** // same read-out, input: `N#CN[C@H]1C[C@@H](O)c2ccc(-c3ncnc4[nH]ccc34)cc21`
**A:** 2

**Q:** // same read-out, input: `N#CN[C@H]1CCc2ccc(-c3ncnc4[nH]cc(-c5cccc(CO)c5)c34)cc21`
**A:** 4

**Q:** // same read-out, input: `C[C@]1(NC#N)CCc2ccc(-c3ncnc4[nH]ccc34)cc21`
**A:** 19

**Q:** // same read-out, input: `N#CN[C@H]1C[C@@H](NS(=O)(=O)c2cccc(F)c2)c2ccc(-c3ncnc4[nH]ccc34)cc21`
**A:** 10
